B1: GFOD1 (parent)
chain: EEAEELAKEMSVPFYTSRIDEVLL

Variants of: B1
Test: protein stability index of a GFP-peptide fusion (GPS, HEK-293T) (PSI 1-6); higher = more stable;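 note: lentivirally expressed fusions sorted by FACS into six bins by GFP to DsRed ratio, PSI derived from sequencing read proportions per bin multiplied by bin number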
Conditions: c terminus: a fixed tail appended
MEASURED_QUANTITY: protein stability index
Give a plain numeric answer without units written out.

# count of solved cases: 5
{"columns": ["SEQUENCE_CHAIN", "protein stability index"],
 "data": [
  ["EEAEELAKEMSYPFYTSRIDEVLL", 4.22],
  ["EEAEELAKEMSVPFYRSRIDEVLL", 3.27],
  ["EEAEELAKEMSVPFYTSRIDEVYL", 3.42],
  ["EEAEELAKEFSVPFYTSRIDEVLL", 3.62],
  ["EEAEELAKEMSVPFYTSRIDSVLL", 3.83]
]}

Consider EEAEELAKEMSVPFYTSRIDVVLL . Its measured protein stability index is 2.45

For record EEAEELAKESSVPFYTSRIDEVLL the listed protein stability index is 4.12

Kindly note the recorded protein stability index for EEAEELAKEMSVPFYTQRIDEVLL , which is 3.27

Measured protein stability index, EEAEELAFEMSVPFYTSRIDEVLL : 2.25

Entry EEAEELAKEMSVPFYTSRIMEVLL — recorded protein stability index = 2.33

Memo: EEAEELAKEMSVPFYTSRQDEVLL , reported protein stability index: 4.93

Record EEAEELAKEMSVPFYTSMIDEVLL , field protein stability index: 3.43

// EEAEELAKEMSVQFYTSRIDEVLL : protein stability index value = 3.47

Lab note: EEAEELAKEMSVPFYTSWIDEVLL gave protein stability index of 3.71

protein stability index measured on EEAMELAKEMSVPFYTSRIDEVLL = 4

Record EEAEELAKEMSVPFYTSRADEVLL . Reported protein stability index: 4.54
